// reported EC50 per item
- study.target: ΔF508 CFTR (Homo sapiens, UniProt P13569, DEL508-508)
- Sequence (P13569 with tags, fused parts or gaps DEL508-508): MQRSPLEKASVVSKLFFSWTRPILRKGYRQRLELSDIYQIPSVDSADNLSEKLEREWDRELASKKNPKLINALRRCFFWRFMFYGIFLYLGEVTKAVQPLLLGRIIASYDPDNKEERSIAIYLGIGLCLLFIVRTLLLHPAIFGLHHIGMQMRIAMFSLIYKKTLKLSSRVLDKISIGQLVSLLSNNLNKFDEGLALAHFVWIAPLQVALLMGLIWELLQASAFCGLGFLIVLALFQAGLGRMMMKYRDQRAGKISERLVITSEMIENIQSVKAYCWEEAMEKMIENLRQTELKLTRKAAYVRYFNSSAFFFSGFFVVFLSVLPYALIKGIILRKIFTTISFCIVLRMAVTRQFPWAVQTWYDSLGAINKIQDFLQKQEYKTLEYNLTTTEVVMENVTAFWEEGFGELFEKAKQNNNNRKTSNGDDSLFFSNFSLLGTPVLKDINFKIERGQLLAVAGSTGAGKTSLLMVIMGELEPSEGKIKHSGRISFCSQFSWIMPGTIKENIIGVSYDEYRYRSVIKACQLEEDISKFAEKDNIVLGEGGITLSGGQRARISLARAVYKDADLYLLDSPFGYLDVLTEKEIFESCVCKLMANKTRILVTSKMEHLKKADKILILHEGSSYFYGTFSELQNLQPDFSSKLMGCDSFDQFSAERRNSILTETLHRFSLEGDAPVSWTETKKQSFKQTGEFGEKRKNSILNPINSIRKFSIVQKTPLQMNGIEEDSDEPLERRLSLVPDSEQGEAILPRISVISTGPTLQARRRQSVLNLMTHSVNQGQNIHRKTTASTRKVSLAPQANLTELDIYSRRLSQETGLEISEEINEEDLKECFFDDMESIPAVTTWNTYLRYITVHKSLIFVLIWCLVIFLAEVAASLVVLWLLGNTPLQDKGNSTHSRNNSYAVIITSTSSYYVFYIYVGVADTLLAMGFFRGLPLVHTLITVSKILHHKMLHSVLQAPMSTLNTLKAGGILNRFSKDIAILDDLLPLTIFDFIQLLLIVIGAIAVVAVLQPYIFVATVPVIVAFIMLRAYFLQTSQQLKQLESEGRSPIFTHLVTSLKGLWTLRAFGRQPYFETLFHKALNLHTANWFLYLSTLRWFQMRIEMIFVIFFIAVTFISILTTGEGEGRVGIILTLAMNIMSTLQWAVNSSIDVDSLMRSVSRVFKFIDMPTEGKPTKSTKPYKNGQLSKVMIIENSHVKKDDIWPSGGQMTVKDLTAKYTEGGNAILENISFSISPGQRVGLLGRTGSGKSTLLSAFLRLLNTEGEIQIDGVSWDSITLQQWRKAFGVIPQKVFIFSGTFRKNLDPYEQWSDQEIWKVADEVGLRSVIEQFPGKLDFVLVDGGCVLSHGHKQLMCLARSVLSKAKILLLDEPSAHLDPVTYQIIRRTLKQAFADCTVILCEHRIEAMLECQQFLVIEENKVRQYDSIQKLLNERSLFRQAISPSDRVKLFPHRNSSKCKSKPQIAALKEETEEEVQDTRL
- test.protocol: Corrector activity, YFP halide (iodide) quenching assay in FRT cells expressing ΔF508 CFTR
- Format: cell-based
- Set-up: expressed in transfected cells; host or cells: Fischer rat thyroid (FRT) cells
- setup.conditions: FRT cells ΔF508 CFTR/YFP, 24 hours with compound at 37° C., forskolin and genistein; read-out: Corrector EC50
parameter: EC50

molecule	study.target	parameter	reading
CCn1nc(Sc2cccc(Br)c2)c2c(N)ncnc21	ΔF508 CFTR (Homo sapiens, UniProt P13569, DEL508-508)	EC50	> 15 µM
CC(C)(C)n1nc(-c2nc3ccccc3o2)c2c(N)ncnc21	ΔF508 CFTR (Homo sapiens, UniProt P13569, DEL508-508)	EC50	2 to 5 µM
CC(C)n1nc(-c2ccc(Cl)cc2)c2c(N)ncnc21	ΔF508 CFTR (Homo sapiens, UniProt P13569, DEL508-508)	EC50	2 to 5 µM
CCn1nc(N(C)c2cccc(Cl)c2)c2c(N)ncnc21	ΔF508 CFTR (Homo sapiens, UniProt P13569, DEL508-508)	EC50	> 15 µM
CC(C)(C)n1nc([S+]([O-])c2ccccc2)c2c(N)ncnc21 (stereo not drawn)	ΔF508 CFTR (Homo sapiens, UniProt P13569, DEL508-508)	EC50	> 15 µM
CN(c1ccccc1)c1nn(C2CCC2)c2ncnc(N)c12	ΔF508 CFTR (Homo sapiens, UniProt P13569, DEL508-508)	EC50	> 15 µM

* * *

- study.target: ΔF508 CFTR (Homo sapiens, UniProt P13569, DEL508-508)
- test.protocol: Corrector activity, YFP halide (iodide) quenching assay in FRT cells expressing ΔF508 CFTR
- Assay type: cell-based
- Set-up: expressed in transfected cells; host or cells: Fischer rat thyroid (FRT) cells
- setup.conditions: FRT cells ΔF508 CFTR/YFP, 24 hours with compound at 37° C., forskolin and genistein; read-out: Corrector EC50
- Method: Fisher rat thyroid (FRT) cells stably expressing ΔF508 CFTR and a halide-sensitive variant of yellow fluorescent protein (YFP) were seeded into microtiter plates and allowed to grow for 24 hours at 37° C. and 5% CO2. See Pedemonte et al., J. Clin. Invest. […] Corrector activity was calculated as follows. Normalized endpoint fluorescence was calculated by dividing the endpoint fluorescence after iodide injection by the initial fluorescence reading and multiplication by 100. […]
pEC50: −log10 of the molar value.

molecule	pEC50
CC(C)(C)n1cc(-c2ccc(Cl)cc2)c2c(NC(=O)C3CCC3)ncnc21	5.30 to 5.70
CCOC(=O)N1CC(n2nc(Sc3ccccc3)c3c(N)ncnc32)C1	< 4.82
CCn1nc(Sc2cccc(Cl)c2)c2c(N)ncnc21	< 4.82
CCn1nc([S+]([O-])c2cccc(C(F)(F)F)c2)c2c(N)ncnc21 (centres unmarked) [compound 340]	< 4.82
CC(C)n1cc(-c2ccc(Cl)cc2)c2c(N)ncnc21	> 5.70
CC(C)C(=O)Nc1ncnc2c1c(Br)nn2C(C)(C)C	> 5.70
CN1CCC(n2nc(-c3ccc(Cl)cc3)c3c(N)ncnc32)CC1	< 4.82
Cn1nc(-c2ccc(Cl)cc2)c2c(N)ncnc21	< 4.82
CC(C)(C)n1nc(Oc2ccccn2)c2c(N)ncnc21	< 4.82
CCNC(=O)N1CC(n2nc(Oc3cccc(Cl)c3)c3c(N)ncnc32)C1	< 4.82
CC(C)(C)n1nc([S+]([O-])c2ccccn2)c2c(N)ncnc21 (centres unmarked)	< 4.82
CCn1cc(-c2ccc(Cl)cc2)c2c(NS(C)(=O)=O)ncnc21	< 4.82
Cn1cc(-c2ccc(Cl)cc2)c2c(N)ncnc21	> 5.70
CNC(=O)c1cnc2c(c(-c3ccc(C)cc3)nn2C(C)(C)C)c1N	< 4.82
CCn1nc(Sc2cccc(OC(F)(F)F)c2)c2c(N)ncnc21	< 4.82
CC(C)C(=O)Nc1ncnc2c1c(Oc1cccc(Cl)c1)nn2C(C)(C)C	5.30 to 5.70
Nc1ncnc2c1c(-c1ccc(Cl)cc1)nn2CCc1ccccc1	< 4.82
Nc1ncnc2c1c(Cc1cccc3ccccc13)nn2C1CCCC1	< 4.82
CCC(C)Cn1cc(-c2ccc(Cl)cc2)c2c(N)ncnc21 (centres unmarked)	5.00 to 5.30
CCn1nc(Sc2ccncc2)c2c(N)ncnc21	< 4.82
CCC(=O)Nc1ncnc2c1c(-c1ccc(Cl)cc1)cn2C(C)(C)C	> 5.70
CCn1nc(-c2ccc(N=[N+]=[N-])cc2)c2c(N)ncnc21	5.00 to 5.30
CCn1nc([S+]([O-])c2ccccc2C)c2c(N)ncnc21 (centres unmarked)	< 4.82
Nc1ncnc2c1c(-c1ccc(Cl)cc1)nn2-c1nc2ccccc2o1	< 4.82
CC(C)(C)n1cc(-c2ccc(Cl)cc2)c2c(NC(=O)C3CCOC3)ncnc21 (centres unmarked)	> 5.70
CCn1nc(-c2ccc(C)cc2)c2c(N)cccc21	< 4.82
CC(C)(C)n1nc(Oc2ccccc2[N+](=O)[O-])c2c(N)ncnc21	< 4.82
CC(C)(C)n1nc(Oc2ccc(OCc3ccccc3)cc2)c2c(N)ncnc21	< 4.82
CN1CC(n2nc(Sc3cccc(Cl)c3)c3c(N)ncnc32)C1	< 4.82
